test system: L1210 leukemia ip in BDF1 mice, survival T/C; test: NCI In Vivo Anticancer Drug Screen. Data for tumor model L1210 Leukemia (intraperitoneal) in B6D2F1 (BDF1) mice; conditions: endpoint: mean survival time; dose: 200.0 mg/kg/injection; schedule: Q04DX003 (ip); vehicle: saline with Tween-80; higher = longer survival
Toxic doses and inconclusive results are not listed.
Measured Quantity: T/C

The examples below pair each entry with its known result.
# Compound, Study Target, Measured Quantity, Value Observed
records = [
    ("COC(C)c1nnnn1C (stereo unspecified)", "L1210 leukemia ip in BDF1 mice, survival T/C", "T/C", "98 % of control"),
    ("COc1ccc(Cc2c3cc(OC)c(OC)cc3cc[n+]2C)cc1OC", "L1210 leukemia ip in BDF1 mice, survival T/C", "T/C", "95 % of control"),
    ("O=C(CCl)Nc1cc(Cl)c(Cl)cc1Cl", "L1210 leukemia ip in BDF1 mice, survival T/C", "T/C", "97 % of control"),
]

[ask] Please look up its T/C: NC(=O)c1cc([N+](=O)[O-])ccc1Cl
[reply] 97 % of control

[ask] Please look up its T/C: C=C(Br)CNC(=O)C(C)(C)C
[reply] 97 % of control

[ask] Please look up its T/C: COc1cccc(CC(=O)NCCc2ccc(OC)c(OC)c2)c1
[reply] 94 % of control

Entry source: PubChem BioAssay AID248
